ASSAY SYSTEM: Avi-KRAS G12D (1-169) GppNHp/RAF1 RBD-3×FLAG (52-151) (Homo sapiens, UniProt P01116, G12D)
Construct: Avi-KRAS G12D (1-169) GppNHp
Sequence (P01116 1-169 isoform P01116-2 G12D limits assumed): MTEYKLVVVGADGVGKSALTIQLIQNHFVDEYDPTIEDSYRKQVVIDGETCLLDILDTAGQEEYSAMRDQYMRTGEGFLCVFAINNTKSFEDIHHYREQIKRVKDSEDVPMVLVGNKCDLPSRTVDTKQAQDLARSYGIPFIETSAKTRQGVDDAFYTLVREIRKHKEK
EXPERIMENT SUMMARY: HTRF Raf1-KRAS G12D-GppNHp disruption assay
EXPERIMENTAL CONTEXT: 1 h incubation
READOUT NAME: IC50

Request: IC50, test system Avi-KRAS G12D (1-169) GppNHp/RAF1 RBD-3×FLAG (52-151) (Homo sapiens, UniProt P01116, G12D), entry `CN1CCC(c2nc(NC3CNC3)c3cc(Cl)c(-c4ccc(F)c5sc(N)nc45)c(F)c3n2)CC1` 10 to 30 µM

Write down the reported IC50 of `COc1cc2c(N3C[C@@H](C)NC[C@@H]3C)nc(OC[C@@]34CCCN3C[C@H](F)C4)nc2c(F)c1-c1ccc(F)c2sc(N)nc12` , test system: Avi-KRAS G12D (1-169) GppNHp/RAF1 RBD-3×FLAG (52-151) (Homo sapiens, UniProt P01116, G12D). 10 to 30 µM

====

ASSAY SYSTEM: Avi-KRAS G12D/Q25A (1-169) GppNHp/3×FLAG-PI3KCA (157-299) (Homo sapiens, UniProt P01116, G12D/Q25A)
Construct: Avi-KRAS G12D/Q25A (1-169) GppNHp
Sequence (P01116 1-169 isoform P01116-2 G12D/Q25A limits assumed): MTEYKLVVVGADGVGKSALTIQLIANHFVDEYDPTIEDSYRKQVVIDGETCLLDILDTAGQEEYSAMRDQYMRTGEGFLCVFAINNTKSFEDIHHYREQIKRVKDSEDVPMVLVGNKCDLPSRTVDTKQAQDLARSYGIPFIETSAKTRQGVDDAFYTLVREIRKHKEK
EXPERIMENT SUMMARY: HTRF PI3KCA-KRAS G12D/Q25A-GppNHp disruption assay
EXPERIMENTAL CONTEXT: 1 h incubation
pIC50: −log10 of the molar value.
Recorded measurements of pIC50, one per entry

Illustrative cases are given below, each with its answer.
1) N#Cc1c(N)sc2c(F)ccc(-c3c(C(F)(F)F)cc4c(N5CC6CCC(C5)N6)nc(OCC5(CN6CCOCC6)CC5)nc4c3F)c12 [Compound 337] :: 6.00 to 7.00
2) CN(c1nc(OC[C@@]23CCCN2C[C@H](F)C3)nc2c(F)c(-c3ccc(F)c4sc(N)nc34)c(C(F)(F)F)cc12)C1C2C[C@H]1CN2 (stereo partly shown) [Compound 289] :: 6.00 to 7.00
3) CN1CC(C)(C)C[C@H]1COc1nc(N2CC3CCC(C2)N3)c2cc(C(F)(F)F)c(-c3ccc(F)c4sc(N)nc34)c(F)c2n1 [Compound 253] :: 5.00 to 6.00
4) CO[C@@H]1C[C@@H](COc2nc(NC3CNC3)c3cc(C(F)(F)F)c(-c4ccc(F)c5sc(N)nc45)c(F)c3n2)N(C)C1 [Compound 122] :: 5.00 to 6.00
5) Nc1nc2c(-c3c(Cl)cc4c(N5CC6CC(C5)N6)nc(OCC56CCCN5CCC6)nc4c3F)ccc(F)c2s1 [Compound 184] :: 5.00 to 6.00
6) Cc1cc2c(N3CCNCC3)nc(OC[C@@H]3CCCN3C)nc2c(F)c1-c1ccc(F)c2sc(N)nc12 [Compound 205] :: 4.52 to 5.00
7) CN1C[C@H](F)C[C@H]1COc1nc(N2CC3CCC(C2)N3)c2cc(C(F)(F)F)c(-c3ccc(F)c4sc(N)nc34)c(F)c2n1 [Compound 275] :: 5.00 to 6.00
8) CN1CCC[C@H]1COc1nc(N2CC3(CCN3)C2)c2cc(Cl)c(-c3ccc(F)c4sc(N)nc34)c(F)c2n1 [Compound 96] :: 4.52 to 5.00

# get_value(readout='pIC50', item= CN1CCC[C@H]1COc1nc(NCCN)c2cc(Cl)c(-c3cccc4nc(N)n(C)c34)c(F)c2n1 [Compound 86] ) 4.52 to 5.00

Requested read-out: pIC50. Entry: CN(c1nc(OC[C@@]23CCCN2C[C@H](F)C3)nc2cc(-c3ccc(F)c4sc(N)nc34)c(C(F)(F)F)cc12)[C@H]1CNC[C@@H]1F [Compound 362] 4.52 to 5.00

Fill blank: measured pIC50 of the molecule Nc1nc2c(-c3c(C(F)(F)F)cc4c(N5CC6CCCC(C5)N6)nc(OC[C@@]56CCCN5C[C@H](F)C6)nc4c3F)ccc(F)c2s1 [Compound 299] is ____. 6.00 to 7.00

Query (molecule): Nc1nc2c(-c3c(C(F)(F)F)cc4c(NC5CC6CC[C@H]5N6)nc(OCC56CCCN5CCC6)nc4c3F)ccc(F)c2s1 (stereo partly shown) [Compound 266] ; field requested: pIC50 5.00 to 6.00

What pIC50 value was documented for this molecule, CN(c1nc(OC[C@@]23CCCN2C[C@H](F)C3)nc2c(F)c(-c3ccc(F)c4sc(N)c(C#N)c34)c(Cl)cc12)[C@@H]1CCNC1 [Compound 379] ? 6.00 to 7.00

====

ASSAY SYSTEM: Avi-KRAS G12D/Q25A (1-169) GppNHp/3×FLAG-PI3KCA (157-299) (Homo sapiens, UniProt P01116, G12D/Q25A)
Construct: Avi-KRAS G12D/Q25A (1-169) GppNHp
EXPERIMENT SUMMARY: HTRF PI3KCA-KRAS G12D/Q25A-GppNHp disruption assay
EXPERIMENTAL CONTEXT: 1 h incubation
Protocol: The HTRF assay employed the following protocol: Compounds were dispensed in assay plate (384-well, Grenier Bione #784075) using Echo (model 555) with dose response settings: 200 nL final volume, titration from 100 μM as a 10-point dilution series. […] Plates were analyzed on an Envision plate reader using the following setting: Excitation 320 nm, Bandwidth […]; Emission 615 nm, Bandwidth […], Gain 100%, Flashes 100, Lag 60 μs. […] Data was plotted and analyzed using Prism 8.
READOUT NAME: IC50

The following molecules have reported results that may help.
1) N#Cc1c(N)sc2c(F)ccc(-c3c(C(F)(F)F)cc4c(N5CC6CCC(C5)N6)nc(OC[C@@]56CCCN5C[C@H](F)C6)nc4c3F)c12 (single isomer, unassigned) [Compound 366] :: ≤ 100 nM
2) NCC(=O)N1CCN(c2nc(OC[C@]34CCCN3C[C@H](F)C4)nc3c(F)c(-c4ccc(F)c5sc(N)nc45)c(C(F)(F)F)cc23)CC1 :: 1000 to 10000 nM

What measured IC50 goes with `CN(c1nc(OC[C@@]23CCCN2C[C@H](F)C3)nc2c(F)c(-c3ccc(F)c4sc(N)nc34)c(C(F)(F)F)cc12)[C@H]1CNC[C@H]1F` ? 100 to 1000 nM

Name the reported IC50 value associated with the molecule `NCC(=O)N1CC(Nc2nc(OCC34CCCN3CCC4)nc3c(F)c(-c4ccc(F)c5sc(N)nc45)c(C(F)(F)F)cc23)C1` 1000 to 10000 nM

Any idea what its IC50 is? The molecule is `CN(c1nc(OC[C@@]23CCCN2C[C@H](F)C3)nc2c(F)c(-c3ccc(F)c4sc(N)c(C#N)c34)c(C(F)(F)F)cc12)[C@H]1CNC[C@@H]1F` 1000 to 10000 nM

====

Entries annotated with measured pIC50
ASSAY SYSTEM: Avi-KRAS G12D/Q25A (1-169) GppNHp/3×FLAG-PI3KCA (157-299) (Homo sapiens, UniProt P01116, G12D/Q25A)
Construct: Avi-KRAS G12D/Q25A (1-169) GppNHp
EXPERIMENT SUMMARY: HTRF PI3KCA-KRAS G12D/Q25A-GppNHp disruption assay
EXPERIMENTAL CONTEXT: 1 h incubation
pIC50: −log10 of the molar value.

1. Nc1nc2c(-c3c(Cl)cc4c(NC5CNC5)nc(OCC56CCCN5CCC6)nc4c3F)ccc(F)c2s1 :: 5.00 to 6.00
2. NC(=O)N1CCN(c2nc(OCC34CCCN3CCC4)nc3c(F)c(-c4ccc(F)c5sc(N)nc45)c(Cl)cc23)CC1 :: 4.52 to 5.00
3. CN(c1nc(OC[C@@H]2C[C@@H](F)CN2C)nc2c(F)c(-c3ccc(F)c4sc(N)nc34)c(-c3ccoc3)cc12)C1CN(C(=O)CN)C1 :: 4.52 to 5.00
4. CN1CCC[C@H]1COc1nc(N(CCO)C2CNC2)c2cc(Cl)c(-c3ccc(F)c4sc(N)nc34)c(F)c2n1 :: 4.52 to 5.00

Record request: pIC50 value, item CN(c1nc(OCC23CCCN2CCC3)nc2c(F)c(-c3ccc(F)c4sc(N)nc34)c(C(F)(F)F)cc12)[C@@H]1CCN(C(N)=O)C1 (atropisomer, axis not shown) [Compound 278] 5.00 to 6.00

Given the compound `CN(C)C1CN(c2nc(NCCN)c3cc(Cl)c(-c4ccc(F)c5sc(N)nc45)c(F)c3n2)C1` , what is its reported pIC50? 4.52 to 5.00

Given the entry `Nc1nc2c(-c3c(C(F)(F)F)cc4c(N5CC6CCC(C5)N6CC5CC5)nc(OC[C@@]56CCCN5C[C@H](F)C6)nc4c3F)ccc(F)c2s1` , report its measured pIC50. 5.00 to 6.00

GET /values?readout=pIC50&item= `Nc1nc2c(-c3c(Cl)cc4c(NC5CNC5)nc(OCC56CCCN5CCC6)nc4c3F)ccc(F)c2o1` 5.00 to 6.00

For the compound shown here, `CO[C@@H]1CN(C)C[C@H]1Oc1nc(NCCN)c2cc(Cl)c(-c3ccc(F)c4sc(N)nc34)c(F)c2n1` , give the reported pIC50. 4.52 to 5.00

Any idea what pIC50 was measured for Nc1nc2c(-c3c(Cl)cc4c(N5CC6CNC(C6)C5)ncnc4c3F)ccc(F)c2s1 (stereo not shown) ? 4.52 to 5.00

Hello, the source for this data is patent US20240246954A1, in case you need it.
